// endpoint Ki / system wild-type Smo (Homo sapiens)
Endpoint label: Ki (nM)

• O=C(NC1CCN(Cc2ccc(N3CCC(NC(=O)c4cccc(-c5cccnc5)c4)CC3)nc2)CC1)c1cccc(-c2cccnc2)c1 [Compound A8] = 37.9
• Cc1c(C(=O)Nc2ccc(N3C[C@@H](C)O[C@@H](C)C3)nc2)cccc1-c1ccc(OC(F)(F)F)cc1 [LDE-225] = 6

###

Molecular target: wild-type Smo (Homo sapiens)
Construct: expressed in transfected cells; host or cells: U2OS
Sequence (Q99835 28-787): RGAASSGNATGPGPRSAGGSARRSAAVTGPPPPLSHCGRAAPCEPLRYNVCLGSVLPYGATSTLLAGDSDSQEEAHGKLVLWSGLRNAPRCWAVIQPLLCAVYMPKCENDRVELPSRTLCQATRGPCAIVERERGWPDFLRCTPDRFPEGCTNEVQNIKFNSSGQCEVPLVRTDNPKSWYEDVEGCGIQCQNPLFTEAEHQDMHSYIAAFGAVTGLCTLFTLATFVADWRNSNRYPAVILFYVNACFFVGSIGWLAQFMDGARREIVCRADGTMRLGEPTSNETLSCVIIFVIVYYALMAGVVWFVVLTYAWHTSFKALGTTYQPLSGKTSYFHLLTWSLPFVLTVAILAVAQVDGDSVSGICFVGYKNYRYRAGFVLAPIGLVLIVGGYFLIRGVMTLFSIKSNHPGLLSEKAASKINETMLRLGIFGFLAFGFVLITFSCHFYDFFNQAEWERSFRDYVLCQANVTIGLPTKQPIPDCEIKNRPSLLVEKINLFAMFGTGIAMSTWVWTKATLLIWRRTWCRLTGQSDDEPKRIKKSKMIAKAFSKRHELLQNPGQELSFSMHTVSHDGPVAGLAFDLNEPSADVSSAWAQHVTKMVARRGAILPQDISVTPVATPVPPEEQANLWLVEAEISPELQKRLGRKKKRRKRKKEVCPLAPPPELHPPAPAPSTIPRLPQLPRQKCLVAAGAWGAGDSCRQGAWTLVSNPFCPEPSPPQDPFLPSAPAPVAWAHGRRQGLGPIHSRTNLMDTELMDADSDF
Assay: [3H]-cyclopamine competitive binding, wild-type Smo
Conditions: 25 nM [3H]-cyclopamine; U2OS cells overexpressing wild-type Smo
Endpoint label: displacement of [3H]-cyclopamine from wild-type Smo

• O=C(NC1CCN(Cc2ccc(N3CCC(NC(=O)c4cccc(-c5cccnc5)c4)CC3)nc2)CC1)c1cccc(-c2cccnc2)c1 = completely displaced
• CS(=O)(=O)c1ccc(C(=O)Nc2ccc(Cl)c(-c3ccccn3)c2)c(Cl)c1 = completely displaced
• CC1=C2C[C@H]3[C@@H](CC=C4C[C@@H](O)CC[C@@]43C)[C@@H]2CC[C@]12O[C@@H]1C[C@H](C)CN[C@H]1[C@H]2C = completely displaced
• Cc1c(C(=O)Nc2ccc(N3C[C@@H](C)O[C@@H](C)C3)nc2)cccc1-c1ccc(OC(F)(F)F)cc1 = completely displaced

###

Target: Smo-D473H (Homo sapiens, UniProt Q99835, D473H)
Construct: expressed in transfected cells; host or cells: U2OS
Sequence (Q99835 28-787 D473H): as the sequence (Q99835 28-787) above, with D446H counted along it
Experiment: [3H]-cyclopamine competitive binding, Smo-D473H mutant
Conditions: U2OS cells overexpressing Smo-D473H
Endpoint label: competition for binding / displacement of [3H]-cyclopamine from Smo-D473H

- CC1=C2C[C@H]3[C@@H](CC=C4C[C@@H](O)CC[C@@]43C)[C@@H]2CC[C@]12O[C@@H]1C[C@H](C)CN[C@H]1[C@H]2C: completely displace
- Cc1c(C(=O)Nc2ccc(N3C[C@@H](C)O[C@@H](C)C3)nc2)cccc1-c1ccc(OC(F)(F)F)cc1: largely ineffective
- O=C(NC1CCN(Cc2ccc(N3CCC(NC(=O)c4cccc(-c5cccnc5)c4)CC3)nc2)CC1)c1cccc(-c2cccnc2)c1: completely displace
- CS(=O)(=O)c1ccc(C(=O)Nc2ccc(Cl)c(-c3ccccn3)c2)c(Cl)c1: largely ineffective

###

Molecular target: Smo-D473H (Homo sapiens, UniProt Q99835, D473H)
Construct: expressed in transfected cells; host or cells: U2OS
Test: [3H]-cyclopamine competitive binding, Smo-D473H mutant
Settings: fixed U2OS cells overexpressing Smo-D473H; 25 nM [3H]-cyclopamine; mean±SEM; read-out: Ki, displacement of [3H]-cyclopamine from Smo-D473H receptors
pKi: −log10 of the molar value.
Endpoint label: pKi

• O=C(NC1CCN(Cc2ccc(N3CCC(NC(=O)c4cccc(-c5cccnc5)c4)CC3)nc2)CC1)c1cccc(-c2cccnc2)c1 [Compound A8] = 6.32
